experiment: chemical genetic growth profiling, strain panel (AID 1159580);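 note: tested at 20 µM; growth read once vehicle control cultures reached saturation at 30 °C; 1 = growth at the plate median or of vehicle wells; lower values mean less growth of the strain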; details: S. cerevisiae deletion strains, growth OD, locus YNR052C, strain pop2
Screen size: about 5,500 compounds; about 2,000 (36%) were called active. Another 18% or so got no clear call; they are omitted. Cut-off read from the data, not from the text of the source: active = normalized growth mostly below about 0.91 (no sharp cut-off); inconclusive = no clear call, values can overlap the other calls; inactive = mostly above about 0.92. Some of the results follow.
Select the correct class. Options are active, inactive and nothing else.

Recorded results for 5 compounds are shown here.
COC(=O)CCC(C)C1CCC2C3CC[C@@H]4C[C@H](O)CC[C@]4(C)C3C[C@H](O)[C@]12C (stereo partly specified)
inactive
CN(C)CCC(c1ccc(Br)cc1)c1ccccn1 (stereo unspecified)
inactive
CCCCCC1C(=O)CCC1CC(=O)OC (stereo unspecified)
inactive
CC(C)CCCC(C)C1CCC2C3CC[C@H]4CCCC[C@]4(C)C3CC[C@]12C (stereo partly specified)
inactive
CC[C@H](CCC(C)[C@H]1CCC2C3CCC4C[C@@H](O)CC[C@]4(C)C3CC[C@@]21C)C(C)C (stereo partly specified)
inactive

Exam item: # lookup: test call for CC(CCC(=O)O)[C@H]1CCC2C3CC[C@@H]4C[C@H](O)CC[C@]4(C)C3CC[C@@]21C (stereo partly specified)
Marked response: active

Exam item: Input OC1=Cc2c(O)cc(O)cc2OC1(O)c1ccc(O)c(O)c1 (stereo unspecified)
Marked response: inactive

Exam item: Then this compound: CCCCCC1C(=O)CCC1CC(=O)O (stereo unspecified)
Marked response: inactive

---

assay: chemical genetic growth profiling, strain panel (AID 1159580);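 note: tested at 20 µM; growth read once vehicle control cultures reached saturation at 30 °C; 1 = growth at the plate median or of vehicle wells; lower values mean less growth of the strain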; details: S. cerevisiae deletion strains, growth OD, locus YNL209W, strain ssb2, hits give low values
The whole screen tested about 5,500 compounds, of which about 2,000 (36%) were called active. Inconclusive results (about 18%) are left out. Some of the results follow.
So I've got a bunch of compounds here, and I need their normalized growth values.
One number for each entry.

Use these answered entries as a reference point.
C[C@@H](N)[C@@H](O)c1ccccc1
1.01
CC(CCC(=O)O)[C@H]1CCC2C3C[C@H](O)[C@@H]4C[C@H](O)CC[C@]4(C)C3CC[C@@]21C (stereo partly specified)
0.978
Cc1cc(O)c(C=O)c2c1C(=O)Oc1c(COC(=O)/C=C/C(=O)O)c(O)c(C(=O)O)c(C)c1O2
0.804
CC(CCC(=O)O)[C@H]1CCC2C3C(C[C@H](O)[C@@]21C)[C@@]1(C)CC[C@@H](O)C[C@H]1C[C@H]3O (stereo partly specified)
0.993

// each compound listed below needs its normalized growth
1. COC(=O)CCCOc1ccc(Cl)cc1Cl
2. CCN(CC)CCOC(=O)C(c1ccccc1)c1ccccc1
3. NCC(CC(=O)O)c1ccc(Cl)cc1 (stereo unspecified)
4. CNC(=O)Oc1ccc2c(c1)[C@]1(C)CCN(C)[C@@H]1N2C
5. CCCCCC1C(=O)CCC1CC(=O)O (stereo unspecified)
6. CCCCS(=N)(=O)CCC(N)C(=O)O (stereo unspecified)
7. CC(CCC(=O)O)[C@H]1CCC2C3CC[C@@H]4CCCC[C@]4(C)C3CC[C@@]21C (stereo partly specified)

Marked response:
1. 0.962
2. 0.969
3. 0.997
4. 1.02
5. 0.995
6. 0.991
7. 1.02

---

assay: chemical genetic growth profiling, strain panel (AID 1159580);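 note: tested at 20 µM; growth read once vehicle control cultures reached saturation at 30 °C; 1 = growth at the plate median or of vehicle wells; lower values mean less growth of the strain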; details: S. cerevisiae deletion strains, growth OD, locus YJL166W, strain qcr8
In all, about 5,500 compounds went through this assay and about 2,000 (36%) were called active. Roughly 18% stayed inconclusive and do not appear here. No stated cut-off is given here; in the data, active means normalized growth mostly below about 0.91 (no sharp cut-off); inconclusive means no clear call, values can overlap the other calls; inactive means mostly above about 0.92. The list shows a part of the results.
Respond with a class label; see 1 (active), 0 (inactive)

The following molecules have reported results that may help.
C[C@@H]1CC2C3C[C@H](F)C4=CC(=O)C=C[C@]4(C)[C@@]3(F)[C@@H](O)C[C@]2(C)[C@@]1(O)C(=O)COC(=O)C(C)(C)C (some centres undefined)
0
NC(Cc1ccc(F)cc1)C(=O)O (centres undefined)
0
CC1=C2[C@H]3OC(=O)[C@@H](C)[C@@H]3CC[C@@]2(C)C=CC1=O
0
CC(=O)N=c1sc(S(N)(=O)=O)nn1C
0

Exam item: In this assay, the call recorded for CC(=O)Nc1ccccc1 was what?
Marked response: 0

Exam item: Please do the same for CC(CN(C)C)CN1c2ccccc2Sc2ccccc21 (centres undefined) as well.
Marked response: 0

Exam item: Now give it for C[C@H](N)[C@H](O)c1cccc(O)c1 too.
Marked response: 0

Exam item: Try N[C@H](Cc1ccccc1)C(=O)O next.
Marked response: 0

Exam item: Then this molecule: CCN(CC)C(C)CN1c2ccccc2Sc2ccccc21 (centres undefined)
Marked response: 1

Exam item: Now consider CC12CC3CC(C)(C1)CC(N)(C3)C2 and answer again.
Marked response: 0

Exam item: What about this molecule? CN(C)CCOC(=O)C(c1ccccc1)C1(O)CCCC1 (centres undefined)
Marked response: 0

Exam item: Now this one: N[C@H](Cc1cc(I)c(Oc2ccc(O)c(I)c2)c(I)c1)C(=O)O
Marked response: 1

Exam item: Entry to check: C=Cc1c(C)c2[n-]c1=Cc1[n-]c(c(CC)c1C)C=c1[n-]c3c(c1C)C(=O)C(C(=O)[O-])C=3c1[n-]c(c(C)c1CCC(=O)[O-])C=2.[Cu] (centres undefined)
Marked response: 0

Exam item: Then this molecule: Cc1nc2ccccn2c(=O)c1CCN1CCC(C(=O)c2ccc(F)cc2)CC1
Marked response: 0

Exam item: And then O=[N+]([O-])c1cccc2c(Br)[nH]nc12 , what is it?
Marked response: 0

Exam item: Next entry: C[C@@H]1CC2C3CCC4=CC(=O)C=C[C@]4(C)[C@@]3(F)[C@@H](O)C[C@]2(C)[C@H]1C(=O)CO (some centres undefined)
Marked response: 0

Exam item: Now this one: C[C@@H](N)[C@@H](O)c1ccccc1
Marked response: 0

Exam item: Continue with CN(C)CCOC(=O)COc1ccc(Cl)cc1
Marked response: 0

Exam item: Also, CCCCCC1C(=O)CCC1CC(=O)OC (centres undefined) please.
Marked response: 0

Exam item: Same question for c1ccc2c(c1)CN1CCCC1=N2 please.
Marked response: 0

Exam item: Do the same for O=C(Nc1ccccc1)Nc1ccccc1 please
Marked response: 0

Exam item: What about this molecule? C=C[C@H]1CN2CC[C@H]1C[C@@H]2[C@H](O)c1ccnc2ccccc12
Marked response: 0

Exam item: Input CNCCCN1c2ccccc2CCc2ccccc21
Marked response: 0

Exam item: What do you get for CC(CN(C)C)CN1c2ccccc2CCc2ccccc21 (centres undefined) ?
Marked response: 0
